Tested on: NCI-H460 lung
Procedure details: NCI tumour cell line growth inhibition, 48 h
Result type: TGI

Indicate its recorded TGI; the molecule in question is Cn1nc(-c2ccccc2)c(C(=O)/C=C/c2ccc(F)cc2)c(N2CCCCC2)c1=O
18.1 µM

Tell us which TGI value is on record for C=C(CCC(C)C1CCC2C3=C(C(=O)CC21C)C1(C)CCC(=O)[C@@H](C)C1CC3=O)C(C)C(=O)O (some centres undefined)
> 100 µM

Read the entry COc1ccc(N2Cc3cnc(Nc4ccccc4)nc3N([C@@H]3CC[C@@H](O)C3)C2=O)cc1 and write its reported TGI.
> 25 µM

Tell us which TGI value is on record for CC(=O)Nc1ccc(C(=O)NN2C(=O)C(Cl)C2c2ccc([N+](=O)[O-])cc2)cc1 (centres undefined)
> 100 µM

Hello, please tell me recorded TGI for this one: CCc1n(Cc2ccc3ccccc3n2)cc[n+]1Cc1ccc2ccccc2n1
11.9 µM

Return TGI for the following molecule: C=C1SC(=Nc2c(C)cc(C)cc2C)N(C(=O)c2sc3ccccc3c2Cl)C12CCCCC2
> 100 µM

Give TGI for Cc1ccc(S(=O)(=O)NNC(=O)c2cc(C)ccc2NC(=O)C23CC4CC(CC(C4)C2)C3)cc1
> 100 µM

Return TGI (reported value) for this molecule: CCOC(=O)C1=C(C(=O)c2ccc(C)cc2)C(c2cccc([N+](=O)[O-])c2)C(C(=O)c2ccc(C)cc2)=C(C(=O)OCC)N1
> 100 µM

Tell us which TGI value is on record for Nc1nc(-c2ccccc2N=NN2CCCC2)nc2ccccc12
17.9 µM

====

I'd appreciate it if you could supply TGI values for the items below.
Test system: CAKI-1 renal
Procedure details: NCI tumour cell line growth inhibition, 48 h

Provide TGI, tested on CAKI-1 renal, for COc1cc2nc(-c3ccc4ccccc4c3)[nH]c(=O)c2cc1OC .
> 100 µM

Provide the reported TGI (system: CAKI-1 renal) for O=c1[nH]c(=O)n([C@@H]2C[C@H](CO)[C@H](O)C2)cc1/C=C/Br
> 100 µM

Name the value of TGI reported for CCC(=O)O[C@H]1CC[C@H]2[C@@H]3CC[C@H]4CC(=O)[C@H](C)C[C@]4(C)[C@H]3CC[C@]12C when tested on CAKI-1 renal.
> 100 µM

State, for CAKI-1 renal, measured TGI of the compound listed here: C=C(CCCCCCCCC)CC(=O)SCCNC(=O)CCNC(=O)C(O)C(C)(C)COP(=O)(O)OP(=O)(O)OCC1OC(n2cnc3c(N)ncnc32)C(O)C1OP(=O)(O)O (centres undefined)
> 100 µM

Look up and report measured TGI (CAKI-1 renal) for the following compound: O=C([CH-]C(=O)c1ccccc1)c1ccccc1.O=C([CH-]C(=O)c1ccccc1)c1ccccc1.O=C([CH-]C(=O)c1ccccc1)c1ccccc1.[Nd+3].[OH3+]
20.8 µM

Output reported TGI of the compound COc1ccc(-c2cc(=O)c3c(C)cc(C)nc3[nH]2)cc1 on CAKI-1 renal.
82.9 µM

Look up and report TGI, with CAKI-1 renal as system, for O=C1C(c2c[nH]c3ccccc23)=C(c2c[nH]c3ccccc23)C(=O)N1O
> 25 µM

Under CAKI-1 renal: report TGI of COC1OC(Cc2nnc(C)o2)C(OCc2ccccc2)C(OCc2ccccc2)C1OCc1ccccc1 (centres undefined) .
> 100 µM

Print CAKI-1 renal TGI for N#CC(C#N)=C1C(C#N)=C(N)NC12OCCO2 .
> 100 µM

For CAKI-1 renal, give the measured TGI of the entry Cc1ccncc1.F[B-](F)(F)F.[Pt+2].c1ccc(-c2cccc(-c3ccccn3)n2)nc1
> 62.1 µM

Determine reported TGI for Oc1ccc(C(c2ccc(O)cc2)c2ccc(Cl)cn2)cc1 ; test system: CAKI-1 renal.
> 100 µM

Enter TGI (test system CAKI-1 renal) for Cc1ccc(C(=O)N/N=C(\N=Nc2cccc(Cl)c2)c2ccc(N(CCC#N)CCC#N)cc2C)cc1
> 100 µM

Give TGI only, for Cc1cc(C)c(P2C(=C(O[Si](C(C)C)(C(C)C)C(C)C)C(C)(C)C)C2(c2ccccc2)c2ccccc2)c(C)c1 (centres undefined) , using CAKI-1 renal data.
> 100 µM

Print CAKI-1 renal TGI for CC(C)=CCC[C@@H](C)C1=C(Nc2ccccc2Cl)C(O)=C(C)C(=O)C1=O .
16 µM

State measured TGI of the compound CCOC(=O)C1(C(=O)OCC)[C@H](c2ccccc2)C2=NO[C@@H]3CCC[C@H]1[C@H]23 with CAKI-1 renal.
> 100 µM

// output TGI; input Cc1nc2c3c(ncn2n1)Oc1c(c(-c2ccccc2)nn1-c1ccccc1)C3c1ccc(Cl)cc1 (centres undefined) ; system CAKI-1 renal
> 100 µM

Report value: TGI, system: CAKI-1 renal, compound: COc1ccc(-c2nc3sc(-c4ccc(Cl)cc4)cn3n2)cc1
8.92 µM

Provide CAKI-1 renal TGI reading for C=CC1[C@H]2COC(C)(C)O[C@@H]2CC(=O)C1(C)C (some centres undefined) .
> 100 µM

Write down measured TGI (CAKI-1 renal) for this compound. CN1CCN(c2c(Cl)cc(Cl)c3[nH]c4ccccc4c(=O)c23)CC1
20.6 µM

====

Tested on: UACC-257 melanoma
Procedure details: NCI tumour cell line growth inhibition, 48 h; in the data active = GI50 below about 0.43 µM; inactive = the rest
Pick one and only one: active, inactive

What was the test verdict on FC(F)(F)c1cc(-c2nnc3n2N=C(N2CCCC2)CS3)cc(C(F)(F)F)c1 ?
inactive

Could you please tell me the result logged for CCCc1c(CC)c(=N)c2ccccc2n1C in this assay?
inactive

Please indicate how the test categorized O=C1c2ccc([N+](=O)[O-])cc2-c2c1c1ccccc1c(=O)n2CCCNCCCNCCCn1c2c(c3ccc([N+](=O)[O-])cc3c1=O)C(=O)c1ccccc1-2 .
inactive

Test call for this molecule, please: CN1CCN(c2ccc(NC(=O)c3nc4ccc5[nH]ncc5c4c4c3CCCC4)cc2C(F)(F)F)CC1
inactive

Hello, I am checking results. What call was entered for O=C(Nc1ccc(F)cc1)c1ccc(NC2=C(Cl)C(=O)N(Cc3ccccc3)C2=O)cc1 ?
inactive

Query: recorded result category for O=C(c1ccc2ccccc2c1)c1c(C(F)(F)F)n([O-])c2cc(F)c(F)cc2[n+]1=O in this test
inactive

Any idea what this test logged for CCc1n(Cc2ccc3ccccc3n2)cc[n+]1Cc1ccc2ccccc2n1 ?
active

Record lookup: outcome of this test for C=CCN(/C=C1/C(=O)O[C@H](COC)[C@@]2(C)C1=C(O)C(=O)C1=C2[C@H](OC(C)=O)C[C@]2(C)C(=O)CC[C@@H]12)CC=C ?
inactive

What did this assay record as the result for O=Nc1c(-c2c(O)[nH]c3ccc([N+](=O)[O-])cc23)[nH]c2ccc(O)cc12 ?
inactive

====

Test system: HCC-2998 colon
Procedure details: NCI tumour cell line growth inhibition, 48 h
Result type: GI50

Please give the documented GI50 of COc1ccc(Nc2ncc(Br)c(NCCCNC(=O)C3CCC3)n2)cc1
21.7 µM

Check the records and state GI50 for O=C([CH-]C(=O)c1ccccc1)c1ccccc1.O=C([CH-]C(=O)c1ccccc1)c1ccccc1.O=C([CH-]C(=O)c1ccccc1)c1ccccc1.[Nd+3].[OH3+]
4.73 µM

Recall and state the measured GI50 for Cc1c(S(C)(=O)=O)c(-c2cc(F)cc(N3CCN(c4ccc(NS(=O)(=O)c5ccc(N[C@H](CCN6CCC(C(=O)OCCCP(=O)(O)O)CC6)CSc6ccccc6)c(S(=O)(=O)C(F)(F)F)c5)cc4)CC3)c2)c(-c2ccc(Cl)cc2)n1C(C)C .
2.13 µM

====

Provide the recorded TGI for the entries that follow.
System: SF-268 CNS
Procedure details: NCI tumour cell line growth inhibition, 48 h

Read the entry CCCCCCCNc1nc(C(=O)OCC)ncc1-c1ccc(C(F)(F)F)cc1 and write its reported TGI.
> 100 µM

Look up TGI of Clc1ccc(Cc2nc3ccccc3s2)c(Cl)c1 and report it.
30.5 µM

Please report the measured TGI for O=C(/C=C/C12c3ccccc3C(c3ccccc31)C1C(=O)N(c3ccccc3)C(=O)C12)c1ccccc1 (stereo not given)
> 100 µM

Read the entry CN(C)c1ccc([O-])cc1.CN(C)c1ccc([O-])cc1.CN(C)c1ccc([O-])cc1.CN(C)c1ccc([O-])cc1.[Ti+4] and write its reported TGI.
> 100 µM

Using known records, supply TGI for O=C(Nc1cccc([N+](=O)[O-])c1)C(=O)C(C(=O)c1ccccc1-c1ccccc1)C1OC(=O)c2ccccc21 (stereo not given)
75.8 µM

Return TGI (reported value) for this compound: COC1OC(Cc2nnc(C)o2)C(OCc2ccccc2)C(OCc2ccccc2)C1OCc1ccccc1 (stereo not given)
46.3 µM

# return recorded TGI for input C/C(=C\c1ccccn1)c1ccccn1
> 100 µM

Fill in TGI for record Cc1ccc(S(=O)(=O)NNC(=O)c2cc(C)ccc2NC(=O)C23CC4CC(CC(C4)C2)C3)cc1
> 100 µM

Tell me measured TGI for COc1ccc(N2Cc3cnc(Nc4ccccc4)nc3N([C@@H]3CC[C@@H](O)C3)C2=O)cc1 please.
> 25 µM

Look up and state reported TGI for COc1cc(/C=C2\CCC/C(=C\c3cc(OC)c(O)c(OC)c3)C2=O)cc(OC)c1O
> 100 µM

Provide measured TGI value, entry: CCn1c(C(=O)N(C2CC2)C2CC2)cc2c3c(ncn3C)c(Nc3cc(C)n(C)n3)nc21
> 100 µM

Give TGI for the following compound: COC(=O)C1CCC(=O)N1C(=O)Cc1ccc(OC)cc1 (stereo not given)
> 100 µM

# return recorded TGI for input CC(=O)O[C@@H]1C[C@@]23C[C@@]24CC[C@H](OC2OCC(O)C(O)C2O)C(C)(C)[C@@H]4CC=C3[C@]2(C)C[C@@H]3OC4(C[C@@H](C)[C@@H]3[C@@]12C)OC(O)[C@@]1(C)O[C@@H]41 (stereo not given in full)
> 100 µM

Item O=C1NC(=O)/C(=C/c2ccc(S(=O)(=O)N/N=C/c3ccc(Cl)cc3)cc2)N1 : provide TGI
> 100 µM

Look up and report measured TGI for this entry: O=C(O)COc1ccc(O)c2c1C(=O)CCCC2=O
> 100 µM

Respond only with TGI recorded for O=[N+]([O-])c1ccc(S(=O)Cc2ccccc2)c([N+](=O)[O-])c1 (stereo not given)
26.6 µM

Given CC(C)CNCC(O)COc1ccc(C(C)(C)c2ccc(OCC(O)CNCC(C)C)cc2)cc1 (stereo not given) , respond with its TGI.
17.4 µM

Name the recorded TGI of the compound listed here: Oc1cc(O)c(Oc2cccc(O)c2O)c(O)c1
> 100 µM

Kindly indicate its recorded TGI. Item: O=C(/C(=C\C(=O)c1cccs1)c1ccsc1)c1ccc(Br)cc1
> 100 µM

Quote TGI reported for O=Nc1c(-c2c(O)[nH]c3ccc([N+](=O)[O-])cc23)[nH]c2ccc(O)cc12 please.
> 100 µM

# credit: PubChem BioAssay (NCI)
